Target Or Test System: CYP2C8 (Homo sapiens)
Sequence (P10632 whole entry): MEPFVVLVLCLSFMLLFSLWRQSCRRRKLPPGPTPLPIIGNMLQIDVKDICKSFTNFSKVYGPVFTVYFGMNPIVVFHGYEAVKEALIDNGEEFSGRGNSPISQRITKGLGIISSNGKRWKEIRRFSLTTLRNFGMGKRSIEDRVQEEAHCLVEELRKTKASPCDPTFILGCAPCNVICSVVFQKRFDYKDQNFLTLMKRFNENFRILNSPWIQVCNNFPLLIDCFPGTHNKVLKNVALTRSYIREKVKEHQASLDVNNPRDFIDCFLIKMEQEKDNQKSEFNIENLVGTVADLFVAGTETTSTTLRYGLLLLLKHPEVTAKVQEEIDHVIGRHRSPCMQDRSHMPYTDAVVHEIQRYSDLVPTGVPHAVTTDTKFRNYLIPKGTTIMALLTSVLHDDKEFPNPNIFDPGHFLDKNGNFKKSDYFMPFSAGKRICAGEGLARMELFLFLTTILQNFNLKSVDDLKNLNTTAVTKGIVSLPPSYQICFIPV
Assay Comment: In vitro P450 inhibition, recombinant CYP2C8
Format: in vitro ADME
Reported Conditions: read-out: IC50 CYP2C8; recombinant CYP; results section
Reported Metric: IC50

N#Cc1ccc(N2N=C3c4ccc(C(=O)N5CCC(O)CC5)nc4CC[C@@H]3[C@@H]2C2CCCC2)cc1Cl    > 10 µM

----------
Target Or Test System: MATE1 (Homo sapiens, UniProt Q96FL8)
Sequence (Q96FL8 whole entry): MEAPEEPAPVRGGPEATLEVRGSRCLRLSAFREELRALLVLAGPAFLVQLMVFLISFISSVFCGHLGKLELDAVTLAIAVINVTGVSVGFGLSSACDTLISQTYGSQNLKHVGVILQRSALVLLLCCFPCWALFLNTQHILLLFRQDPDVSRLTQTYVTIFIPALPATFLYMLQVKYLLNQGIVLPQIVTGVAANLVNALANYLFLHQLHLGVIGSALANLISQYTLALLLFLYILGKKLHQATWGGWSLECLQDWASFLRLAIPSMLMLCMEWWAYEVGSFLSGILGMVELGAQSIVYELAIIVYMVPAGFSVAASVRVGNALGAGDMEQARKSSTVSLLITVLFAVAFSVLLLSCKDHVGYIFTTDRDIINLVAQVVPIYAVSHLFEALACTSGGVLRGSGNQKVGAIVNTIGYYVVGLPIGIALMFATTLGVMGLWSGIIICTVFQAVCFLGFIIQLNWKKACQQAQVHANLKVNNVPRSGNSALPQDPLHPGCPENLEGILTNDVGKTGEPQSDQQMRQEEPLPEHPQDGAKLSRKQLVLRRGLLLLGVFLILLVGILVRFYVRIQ
Assay Comment: MATE1 uptake inhibition assay
Type: in vitro ADME
Reported Conditions: read-out: Inhibition results (IC50), MATE1 UPT; probe metformin (10 µm); Table 1
pIC50: −log10 of the molar value.
Reported Metric: pIC50

N#Cc1ccc(N2N=C3c4ccc(C(=O)N5CCC(O)CC5)nc4CC[C@@H]3[C@@H]2C2CCCC2)cc1Cl    5.17

----------
Target Or Test System: CYP3A4 (Homo sapiens)
Sequence (P08684 whole entry): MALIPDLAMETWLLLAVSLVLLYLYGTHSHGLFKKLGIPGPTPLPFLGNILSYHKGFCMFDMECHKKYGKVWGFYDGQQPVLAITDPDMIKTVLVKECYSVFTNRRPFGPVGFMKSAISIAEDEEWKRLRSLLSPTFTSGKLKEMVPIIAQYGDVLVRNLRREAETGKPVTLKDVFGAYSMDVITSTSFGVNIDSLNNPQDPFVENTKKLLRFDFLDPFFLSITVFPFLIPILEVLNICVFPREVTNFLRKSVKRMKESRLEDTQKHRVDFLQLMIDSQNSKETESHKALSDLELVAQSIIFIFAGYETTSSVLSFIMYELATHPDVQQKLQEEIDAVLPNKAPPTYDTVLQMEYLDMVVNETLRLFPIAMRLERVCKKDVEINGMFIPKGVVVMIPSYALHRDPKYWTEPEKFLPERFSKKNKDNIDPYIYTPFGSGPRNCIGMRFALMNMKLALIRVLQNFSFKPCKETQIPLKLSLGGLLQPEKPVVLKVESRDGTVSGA
Assay type: in vitro ADME
Reported Conditions: read-out: IC50 CYP3A4 (testosterone-based); testosterone probe
Reported Metric: IC50

N#Cc1ccc(N2N=C3c4ccc(C(=O)N5CCC(O)CC5)nc4CC[C@@H]3[C@@H]2C2CCCC2)cc1Cl [Ocedurenone, ocedurenone]    > 200 µM

----------
Target Or Test System: CYP3A4 (Homo sapiens)
Type: in vitro ADME
Reported Conditions: read-out: IC50 CYP3A4 (midazolam-based); midazolam probe
Reported Metric: IC50

N#Cc1ccc(N2N=C3c4ccc(C(=O)N5CCC(O)CC5)nc4CC[C@@H]3[C@@H]2C2CCCC2)cc1Cl    > 200 µM

----------
Target Or Test System: CYP2C19 (Homo sapiens, UniProt P33261)
Sequence (P33261 whole entry): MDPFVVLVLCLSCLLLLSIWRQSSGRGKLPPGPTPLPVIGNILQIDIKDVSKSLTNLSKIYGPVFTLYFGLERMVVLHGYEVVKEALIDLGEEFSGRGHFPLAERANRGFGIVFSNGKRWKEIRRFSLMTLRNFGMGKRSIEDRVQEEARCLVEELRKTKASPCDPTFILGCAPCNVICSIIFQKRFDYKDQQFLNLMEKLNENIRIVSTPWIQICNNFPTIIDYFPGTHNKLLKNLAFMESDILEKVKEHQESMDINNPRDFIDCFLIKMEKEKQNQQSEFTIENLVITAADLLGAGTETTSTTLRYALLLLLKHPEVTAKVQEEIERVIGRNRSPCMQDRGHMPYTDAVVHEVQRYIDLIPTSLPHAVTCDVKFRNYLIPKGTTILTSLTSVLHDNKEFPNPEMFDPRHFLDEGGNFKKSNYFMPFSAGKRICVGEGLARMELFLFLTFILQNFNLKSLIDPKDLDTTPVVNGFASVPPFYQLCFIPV
Assay Comment: In vitro P450 inhibition, recombinant CYP2C19
Assay type: in vitro ADME
Reported Conditions: read-out: IC50 CYP2C19; recombinant CYP
pIC50: −log10 of the molar value.
Reported Metric: pIC50

N#Cc1ccc(N2N=C3c4ccc(C(=O)N5CCC(O)CC5)nc4CC[C@@H]3[C@@H]2C2CCCC2)cc1Cl    < 3.70

----------
Target Or Test System: CYP1A2 (Homo sapiens, UniProt P05177)
Sequence (P05177 1-516): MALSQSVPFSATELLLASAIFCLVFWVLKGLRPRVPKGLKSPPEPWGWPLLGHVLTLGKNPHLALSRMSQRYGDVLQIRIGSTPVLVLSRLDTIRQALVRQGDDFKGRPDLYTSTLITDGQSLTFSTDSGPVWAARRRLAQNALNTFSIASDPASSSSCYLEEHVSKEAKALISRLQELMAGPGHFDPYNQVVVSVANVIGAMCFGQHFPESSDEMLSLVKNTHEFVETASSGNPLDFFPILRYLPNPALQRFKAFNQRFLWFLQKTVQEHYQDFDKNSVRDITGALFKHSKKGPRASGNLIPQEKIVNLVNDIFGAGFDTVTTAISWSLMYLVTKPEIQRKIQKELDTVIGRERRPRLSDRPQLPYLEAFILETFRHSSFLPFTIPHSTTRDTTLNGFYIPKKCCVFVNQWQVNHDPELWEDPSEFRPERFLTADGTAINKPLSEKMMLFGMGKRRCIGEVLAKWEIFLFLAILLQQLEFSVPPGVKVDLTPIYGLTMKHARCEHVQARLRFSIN
Type: in vitro ADME
Reported Conditions: read-out: IC50 CYP1A2; recombinant CYP
pIC50: −log10 of the molar value.
Reported Metric: pIC50

N#Cc1ccc(N2N=C3c4ccc(C(=O)N5CCC(O)CC5)nc4CC[C@@H]3[C@@H]2C2CCCC2)cc1Cl [Ocedurenone, ocedurenone]    < 3.70

Hey, just so you know, these numbers are from paper PMC10322960.
